test_system: DLG1_1, Q12959
assay_details: holdup assay
Parameters: key: below the threshold = too weak to quantify, mostly under pKd 3.1 to 4
run_conditions: plain residues with an end cap or a label only (N-terminal biotin on a linker: ahx)
# pKd listing for each entry below
observed_property: pKd

binder	obs_value
HSATSVHTSV [MTMR1, Q13613]	4.26
YNSFLSVTTV [PDZRN3, Q9UPQ7]	3.81
AKPQPVDSWV [ARVCF, O00192]	4.29
KDECVIATEV [DLL1, O00548]	3.72
